biological target: T1, recombinant CD3D&E protein (human CD3-his tag) (human, UniProt P04234 22-105; P07766 23-126, limits assumed); experiment: SPR Biacore, Ab captured on Protein A;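 further: humanized antibodies on a Protein A chip, human CD3-his analyte flowed over in serial dilutions for 3 min, dissociation tracked 120–360 s on a Biacore T200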
T1 construct: Analyte in Biacore; also called CD3D&E-His; CD3d&ε-His
T1 sequence (P04234 22-105 limits assumed, chain 1 of 2): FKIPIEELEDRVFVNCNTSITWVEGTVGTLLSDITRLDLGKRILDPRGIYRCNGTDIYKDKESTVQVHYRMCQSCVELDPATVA
T1 sequence (P07766 23-126 limits assumed, chain 2 of 2): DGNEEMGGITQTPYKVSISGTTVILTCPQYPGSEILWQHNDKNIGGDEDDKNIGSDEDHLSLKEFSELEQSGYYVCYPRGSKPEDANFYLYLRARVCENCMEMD
MEASURED_PARAMETER: koff (s⁻¹)
// return numeric value only (unit: s⁻¹, not printed)

Hu155A9B1-11 (antibody, V domains shown, humanized mAb) VH: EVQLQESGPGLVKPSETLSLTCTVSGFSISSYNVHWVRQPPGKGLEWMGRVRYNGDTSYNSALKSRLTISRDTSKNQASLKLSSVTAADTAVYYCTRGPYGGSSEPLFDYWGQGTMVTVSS VL: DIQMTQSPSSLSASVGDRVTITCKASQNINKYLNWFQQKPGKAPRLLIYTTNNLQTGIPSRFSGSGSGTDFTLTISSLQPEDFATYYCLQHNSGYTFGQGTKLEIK	0.00306

Can you look up the measured koff of Hu153A6B1-17 (antibody, V domains shown, humanized mAb) VH: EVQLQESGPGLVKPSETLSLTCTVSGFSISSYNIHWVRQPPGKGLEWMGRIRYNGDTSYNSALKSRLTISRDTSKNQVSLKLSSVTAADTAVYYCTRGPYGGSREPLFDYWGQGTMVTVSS VL: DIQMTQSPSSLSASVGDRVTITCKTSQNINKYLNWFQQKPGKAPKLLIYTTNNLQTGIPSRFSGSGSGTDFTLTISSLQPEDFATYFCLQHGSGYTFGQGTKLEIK for me?
0.00106
